test: Human HepG2 cell viability assay in 384 well format; assay type: toxicity, cell-based; design: dose 125 nL, time 70.5 hour; concentration not given beside the values; details: HepG2 cells, read-out: Inhibition
measured-endpoint: cytotoxicity at 70.5 h (%)
Give bare numbers, in %.

Prompt: Value lookup for cytotoxicity at 70.5 h; key = Cc1nc(CN2C(=O)CCC23CCN(c2ncccc2C)CC3)cs1
Completion: 33.3

Prompt: Value lookup for cytotoxicity at 70.5 h; key = Cc1ccc(S(=O)(=O)N2CCC(c3n[nH]cc3C)C2)cc1 (configuration not stated)
Completion: -1.04

Prompt: Value lookup for cytotoxicity at 70.5 h; key = O=C(CCc1cccnc1)N1CCCCC1c1ccn2ccnc2n1 (configuration not stated)
Completion: -6.74

Prompt: Value lookup for cytotoxicity at 70.5 h; key = COCCc1noc(-c2cn(CCc3ccccc3)nn2)n1
Completion: 2.44

Prompt: Value lookup for cytotoxicity at 70.5 h; key = CCOCC(O)CN1CCN(C(=O)c2ccc(C)nc2)CC1 (configuration not stated)
Completion: 0.688

Prompt: Value lookup for cytotoxicity at 70.5 h; key = COc1ccc(C[C@H]2CN(C(=O)C3CC3)CC[C@H]2OC)cc1
Completion: 21.5

Prompt: Value lookup for cytotoxicity at 70.5 h; key = Fc1ccc(CNCc2nnc3n2CC(C(F)(F)F)CC3)c(F)c1 (configuration not stated)
Completion: -7.11

Prompt: Value lookup for cytotoxicity at 70.5 h; key = CC(C)CCOc1ccc(C(C)NC(=O)Cn2cccnc2=O)cc1 (configuration not stated)
Completion: -5.94

Prompt: Value lookup for cytotoxicity at 70.5 h; key = COc1ccc(C(=O)Nc2nncs2)cn1
Completion: 27.2

Prompt: Value lookup for cytotoxicity at 70.5 h; key = Cc1cc(S(=O)(=O)NC(C)(C)CN)c(F)cc1F
Completion: -9.88

Go through the items and report each one's cytotoxicity at 70.5 h.
1. COc1ccc(CNC[C@H]2COCc3nc4cccnc4n32)cc1
2. O=C(c1ccco1)N1CC[C@@H]2[C@H]1CCC(=O)N2c1ccccc1
3. CCOc1ccccc1-c1noc(CN2CCOC(CN(C)C)C2)n1 (configuration not stated)
4. COCCn1cncc1CN1CCCC(C(=O)Cc2ccccc2)C1 (configuration not stated)
5. CS(=O)(=O)NCC1CCCN(C(=O)COc2ccc(F)cc2)C1 (configuration not stated)
6. CCN1CC[C@@]2(C(=O)Nc3ccccc3)CCN(S(C)(=O)=O)CC[C@@H]12
7. CC(C)NC(=O)NC[C@H]1OC[C@@H](NCc2ccncc2)[C@@H]1O

Completion:
1: -4.57; 2: -15.1; 3: -10.8; 4: 0.198; 5: -15.8; 6: -17.9; 7: -3.41

Go through the items and report each one's cytotoxicity at 70.5 h.
1. O=C1NCCN1C1CCN(CCOc2ccccc2Cl)CC1
2. CN(C(=O)c1ccncc1F)c1ccccc1S(C)(=O)=O
3. Cc1ccn(-c2ccccc2NCc2ncc[nH]2)n1
4. CC(CO)CN(Cc1ccccc1)Cc1cnc2ccccc2n1 (configuration not stated)
5. CN(Cc1ccccn1)C1CCC[C@@H]2CN(CC3CC3)C[C@H]12 (some centres not stated)
6. Cc1cc(C(=O)N2CCNC(=O)C2)c(C)n1CC(F)(F)F
7. O=C(NCCc1nc(C2CC2)no1)[C@H]1CNC[C@H](C(=O)N2CCCC2)C1

Completion:
1: 0.552; 2: -1.8; 3: 3.45; 4: -8.82; 5: 17.7; 6: 26.8; 7: -1.74

Go through the items and report each one's cytotoxicity at 70.5 h.
1. Cc1cc(CN(C)Cc2ncc(C(C)(C)C)o2)no1
2. O=S(=O)(C1CC1)N1CCC2(CC1)COC(COc1ccccn1)C2 (configuration not stated)

Completion:
1: 18.2; 2: -5.06

Go through the items and report each one's cytotoxicity at 70.5 h.
1. Cc1ccc2c(n1)N(CCN(C)C)CCN(C(=O)c1ccc[nH]1)C2
2. COc1ccc(OC)c(CCNC(=O)CCC2CCCO2)c1 (configuration not stated)
3. O=C(Nc1nncs1)C1CSCN1C(=O)C1CCCC1 (configuration not stated)
4. CS(=O)(=O)N1CCC(NC(=O)COc2ccc(Cl)c(Cl)c2)CC1
5. CC(C)c1nc(C2CCCNC2)no1 (configuration not stated)

Completion:
0.599
-10
-3.88
-8.67
14.1

Go through the items and report each one's cytotoxicity at 70.5 h.
1. CSCC[C@@H](CO)NC(=O)c1ccc2nc(NS(C)(=O)=O)sc2c1
2. CC(C(=O)N1CCCC1)N1CCN(c2ncc(Cl)cn2)CC1 (configuration not stated)
3. O=C(c1cccnc1)N1CCN2C[C@H](OCc3ccccc3)C[C@H]2C1
4. COC(=O)C(C)(C)NC(=O)c1cc2sc(N(C)C)nc2s1
5. Nc1nccc(N2CCCC(CO)(CCOc3ccccc3)C2)n1 (configuration not stated)

Completion:
[-1, -3.08, -5.95, -13.9, 8.14]

Go through the items and report each one's cytotoxicity at 70.5 h.
1. CCc1ccc(S(=O)(=O)N2CCCn3ncnc32)s1
2. COc1ncc(CN(C)C(C)c2cccnc2)cn1 (configuration not stated)
3. Cn1c(SCC(=O)NC(C)(C#N)C2CC2)nc2ccccc21 (configuration not stated)

Completion:
1: -3.85; 2: 9.74; 3: 0.675

Go through the items and report each one's cytotoxicity at 70.5 h.
1. CC(NC(=O)N(C)Cc1ccsc1)c1ccc2c(c1)OCO2 (configuration not stated)
2. O=C(C[C@@H]1COC[C@H]2CN(Cc3ccccc3)C[C@@H]12)N1CCCC1
3. Cc1cc(C)n(CC2CCCN2CCc2ccccn2)n1 (configuration not stated)
4. CCN(CC)CCNC(=O)c1ccc(-n2ccc3ccccc32)s1
5. CCc1[nH]c2c(CNC(=O)C3CCC(=O)NC3)cc(C)cc2c1C (configuration not stated)

Completion:
-14.1
-14.4
1.45
1.6
-9.39

Go through the items and report each one's cytotoxicity at 70.5 h.
1. O=C(CCN1CCCC(CO)(CC2CC2)C1)NC1CCCCC1 (configuration not stated)
2. O=C(O)c1ccnc(-c2ccnc(COc3cccc(F)c3)n2)c1
3. NC(=O)NCCC(=O)N1CCC(c2cc(Cc3ccccc3)n[nH]2)CC1

Completion:
-25.2
16.7
-6.87

----------
assay: Human HepG2 cell viability assay in 384 well format; format: toxicity, cell-based; parameters: dose 125 nL, time 70.5 hour; concentration not given beside the values; conditions: HepG2 cells, read-out: Inhibition
measured-endpoint: cytotoxicity at 70.5 h (%)
One number for each entry, in %.

# annotated cases, reported cytotoxicity at 70.5 h shown
Prompt: Value lookup for cytotoxicity at 70.5 h; key = Cc1cc(N2CCC(N3CCOCC3)C2)n2nc(C)c(C)c2n1 (centres undefined)
Completion: -4.03

Prompt: Value lookup for cytotoxicity at 70.5 h; key = Cc1nc(CN2CCC3(CCCN(C(=O)c4cnccn4)C3)C2)cs1 (centres undefined)
Completion: -2.34

Prompt: Value lookup for cytotoxicity at 70.5 h; key = CNC(=O)c1ccc(S(=O)(=O)NCc2cccnc2N(C)C)cc1
Completion: -6.39

Prompt: Value lookup for cytotoxicity at 70.5 h; key = CN(C)c1ccc(CNC(=O)Nc2ccc(S(=O)(=O)C(F)F)cc2)cc1
Completion: -0.147

Prompt: Value lookup for cytotoxicity at 70.5 h; key = c1nc(N2CCCC(Cn3cncn3)C2)c2ccsc2n1 (centres undefined)
Completion: 38.8

Prompt: Value lookup for cytotoxicity at 70.5 h; key = CN(Cc1nnc(C2CC2)o1)C1CCN(CCc2cccs2)C1 (centres undefined)
Completion: 30.4

Prompt: Value lookup for cytotoxicity at 70.5 h; key = CCCc1nc(N2CCN(Cc3ccccn3)CC2)c2cnn(C)c2n1
Completion: -6.11

Prompt: Value lookup for cytotoxicity at 70.5 h; key = CN(C1CCCN(c2ccccn2)C1)S(=O)(=O)N1CCOCC1 (centres undefined)
Completion: -2.35

Go through the items and report each one's cytotoxicity at 70.5 h.
1. OC1(CNc2cc(C(F)(F)F)nc3ccccc23)CCOCC1
2. CNc1ncc(CN(C)C(=O)CCc2[nH]nc3c2CCCC3)cn1
3. Cc1cccc(-n2nnnc2C2(NCc3ccco3)CCCCC2)c1
4. CS(=O)(=O)NCC1CCCN(C(=O)Nc2ccccc2N2CCCC2)C1 (centres undefined)
5. CCOc1ccccc1OC1CCN(C(=O)c2cc[nH]n2)CC1
6. CNS(=O)(=O)c1ccc(CNC(=O)N(C)CC(O)COC)cc1 (centres undefined)
7. CC1CN(Cc2ccc(C#N)cc2F)CCN1Cc1nccn1C (centres undefined)
8. CN(Cc1cccc(C(F)(F)F)c1)Cc1nc(-c2cnccn2)no1

Completion:
[-4.81, -11.5, -3.38, -1.87, -1.68, -74.7, -5.45, -8.53]

----------
experiment: Human HepG2 cell viability assay in 384 well format; assay type: toxicity, cell-based; design: dose 125 nL, time 70.5 hour; concentration not given beside the values; settings: HepG2 cells, read-out: Inhibition
So I've got a bunch of molecules here, and I need their cytotoxicity at 70.5 h values.
Answers are plain numbers, in %.

Prompt: Value lookup for cytotoxicity at 70.5 h; key = CN(C)CC(=O)N1Cc2ncn(C)c2C(COCC2CCOCC2)C1 (stereo unspecified)
Completion: -6.48

Prompt: Value lookup for cytotoxicity at 70.5 h; key = CCOCCC(=O)N1CCCN(Cc2csc(CC)n2)CC1
Completion: -0.403

Prompt: Value lookup for cytotoxicity at 70.5 h; key = CCCc1noc(CCC(=O)N2CCCC2c2cccc(OC)c2)n1 (stereo unspecified)
Completion: -8.65

Go through the items and report each one's cytotoxicity at 70.5 h.
1. COCc1nccc(C2CCCN(Cc3ccccc3C#N)C2)n1 (stereo unspecified)
2. F[C@@H]1CN(CC2CC2)C[C@@H]1OCc1nc2ccc(C(F)(F)F)cc2[nH]1
3. CCO[C@@H]1CO[C@@]2(CCN(Cc3ccc4c(c3)OCO4)C2)C1
4. O=C(NC1CCC1)[C@@H]1CCO[C@@H]2CCN(C3CCCC3)C[C@H]21
5. CCc1ncnc(N2CCOCC2C2CC2)c1F (stereo unspecified)
6. CC(=O)NCc1noc2c1CN(Cc1ccsc1)CC2
7. COc1c(C2CCCN2CC(=O)Nc2nccs2)c(C)nn1C (stereo unspecified)
8. N#Cc1cccc(C(=O)N2CC(c3nc(-c4ccc[nH]c4=O)no3)C2)c1

Completion:
1: -6.99; 2: 0.533; 3: -17.3; 4: -3.8; 5: -15.6; 6: -7.56; 7: -2.85; 8: -1.92
